tested on: human coronavirus (HCoV) 229E; assay: microbe, parasite or virus in culture; assay type: cell-based, human coronavirus 229E; details: unidentified human coronavirus, 72 h, MRCS cells, HCoV 229E, 3 days, CellTiter Glo; read-out: 229E CPE EC50
Please go through the items and note down their pEC50.
One number for each entry, as −log10 of the molar value.

Recorded pEC50, per entry:
COMPOUND: CC(C)(C)[C@H](NS(=O)(=O)c1ccc(F)c(F)c1)C(=O)N1C[C@H]2[C@@H]([C@H]1C(=O)N[C@H](C#N)C[C@@H]1CCNC1=O)C2(C)C [Compound 99]
SUBJECT_OF_TEST: human coronavirus (HCoV) 229E
pEC50: 6.57
--
COMPOUND: CC(C)(C)[C@H](NC(=O)Cc1ccc2c(c1)CCC2)C(=O)N1C[C@H]2[C@@H]([C@H]1C(=O)N[C@H](C#N)C[C@@H]1CCNC1=O)C2(C)C [Compound 82]
SUBJECT_OF_TEST: human coronavirus (HCoV) 229E
pEC50: 6.35

## Task Entry CC(C)(C)NC(=O)N[C@H](C(=O)N1C[C@H]2[C@@H]([C@H]1C(=O)N[C@H](C#N)C[C@@H]1CCNC1=O)C2(C)C)C(C)(C)C [Compound 87] has what pEC50?
## Result 5.04

###

Please go through the items and note down their pEC50.
test system: human coronavirus (HCoV) 229E; test: microbe, parasite or virus in culture; type: cell-based, human coronavirus 229E; details: unidentified human coronavirus, 72 h, MRCS cells, HCoV 229E, 3 days, CellTiter Glo; read-out: 229E CPE EC50
One number for each entry, as −log10 of the molar value.

Recorded pEC50, per entry:
LINE_NOTATION: COc1ccsc1S(=O)(=O)N[C@H](C(=O)N1C[C@H]2[C@@H]([C@H]1C(=O)N[C@H](C#N)C[C@@H]1CCNC1=O)C2(C)C)C(C)(C)C
pEC50: 6.15

LINE_NOTATION: COc1ccc(S(=O)(=O)N[C@H](C(=O)N2C[C@H]3[C@@H]([C@H]2C(=O)N[C@H](C#N)C[C@@H]2CCNC2=O)C3(C)C)C(C)(C)C)cc1
pEC50: 6.29

LINE_NOTATION: CC(C)(C)[C@H](NC(=O)C1(C(F)(F)F)CC1)C(=O)N1C[C@H]2[C@@H]([C@H]1C(=O)N[C@H](C#N)C[C@@H]1CCNC1=O)C2(C)C
pEC50: 6.68

LINE_NOTATION: CN(C)C(C)(C)C(=O)N[C@H](C(=O)N1C[C@H]2[C@@H]([C@H]1C(=O)N[C@H](C#N)C[C@@H]1CCNC1=O)C2(C)C)C(C)(C)C
pEC50: 4.90

Please examine the following record next.
## Task Entry `CC(C)(C)[C@H](NC(=O)c1ccc(F)cc1)C(=O)N1C[C@H]2[C@@H]([C@H]1C(=O)N[C@H](C#N)C[C@@H]1CCNC1=O)C2(C)C` has what pEC50?
## Result 5.37

###

system: human coronavirus (HCoV) 229E; assay: microbe, parasite or virus in culture; assay type: cell-based, human coronavirus 229E; conditions: unidentified human coronavirus, 72 h, MRCS cells, HCoV 229E, 3 days, CellTiter Glo; read-out: 229E CPE EC50
Please go through the items and note down their pEC50.
Answers are plain numbers, as −log10 of the molar value.

LINE_NOTATION: CC(C)(C)[C@H](NC(=O)C12CC(C(F)(F)F)(C1)C2)C(=O)N1C[C@H]2[C@@H]([C@H]1C(=O)N[C@H](C#N)C[C@@H]1CCNC1=O)C2(C)C
SUBJECT_OF_TEST: human coronavirus (HCoV) 229E
pEC50: 5.16

Go through the list and state pEC50 for each entry.
1. Cc1ccc(S(=O)(=O)N(C(=O)C(F)(F)F)[C@H](C(=O)N2C[C@H]3[C@@H]([C@H]2C(=O)N[C@H](C#N)C[C@@H]2CCNC2=O)C3(C)C)C(C)(C)C)cc1
2. C/C(=C\C(=O)N[C@H](C(=O)N1C[C@H]2[C@@H]([C@H]1C(=O)N[C@H](C#N)C[C@@H]1CCNC1=O)C2(C)C)C(C)(C)C)C(F)(F)F

## Result
1. 6.92
2. 6.21
